# Lookup of reported growth inhibition keyed by entry
Assay: NCI Yeast Anticancer Drug Screen. Data for the mec2-1 strain (AID 157)
Conditions: S. cerevisiae mec2-1 strain, at 50.0 µM (retest, dose inferred, filed as 5.0), hits give high values
Description: Growth inhibition of yeast strains with defined genetic alterations is measured as a screen for potential anti-cancer activity. Selected strains with alterations in DNA damage repair or cell cycle control were exposed to compounds and growth inhibition was measured relative to vehicle treated controls. The strain used in this assay is mec2-1
Compounds without any hit were thinned out: in the full panel of roughly 79,000, 15% have a hit.
The reply should be a number in %, with the unit left off.

Record excerpt, results attached:
smiles.str | numeric.result
Oc1ccc(Cc2ccccc2)cc1 | 14
COc1ccc2nc3cc(Cl)ccc3c(NCCCNCc3cc(OC)c(OC)c(OC)c3)c2c1 | 62
O=[N+]([O-])c1cccc2nc3ccccc3c(NCCN(CCO)CCO)c12 | 98

# ---- query molecule ----
(Q) For the molecule shown here, Oc1ccccc1C=Nc1ccccc1O , give the reported growth inhibition.
(A) 22

----------
Experiment: NCI Yeast Anticancer Drug Screen. Data for the cln2 rad14 strain (AID 165);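 further: 0% = growth equal to vehicle treated cultures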
Details: S. cerevisiae cln2 rad14 strain, at 50.0 µM
The panel holds about 79,000 compounds, 15% with a hit somewhere; the sample as a whole holds those more often. The source made the active and inactive calls. Rule as the data show it: active = growth inhibition above about 70%; inactive = the rest. Where a SMILES comes first, the peptide text is derived from it.
Could you please pick one outcome from this set? 1.0 for active, 0.0 for inactive

compound | group.label
CCC1CCCC(=O)C1 (stereo unspecified) | 0.0
CC(C)C(NC(=O)C(N)CCC(=O)O)C(=O)O (stereo not drawn) (H-Glu-Val-OH; configuration not given here) | 0.0
CCSSC(=Nc1ccccc1)OCC(C)C | 0.0
COc1cc(C2C(C#N)=C(C)Nc3nc(N)nc(N)c32)cc(OC)c1OC (stereo unspecified) | 1.0
Cc1nc2c(nc1C)C(=O)c1ccccc1C2=O | 0.0

(Q) Query: recorded result category for Fc1cccc(CSC(=S)Nc2ccc(F)c(F)c2)c1 in this test
(A) 1.0

----------
Assay: NCI Yeast Anticancer Drug Screen. Data for the rad50 strain (AID 155);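 further: 0% = growth of vehicle-only cultures of the same strain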
Settings: S. cerevisiae rad50 strain growth inhibition; at 5.0 µM (retest, dose inferred, filed as 0.5); hits give high values
Compounds without any hit were thinned out: in the full panel of roughly 79,000, 15% have a hit.
property.label: growth inhibition (%)
The reply should be a number in %, with the unit left off.

compound | growth inhibition (%)
Oc1cccc2c1-c1ccccc1C2 | -6
Cc1cc2c(C(C)C)c(O)c(O)c(C=Nc3ccccc3S)c2c(O)c1-c1c(C)cc2c(C(C)C)c(O)c(O)c(C=Nc3ccccc3S)c2c1O | -3
Fc1ccc2nc3ccccc3nc2c1 | 3
O=C(OC(=Nc1ccccc1)N(c1ccccc1)c1ccccc1)c1ccccc1 | 5

(Q) For the compound shown here, Cc1c(OCc2cccc3ccccc23)ccc2c(=O)cc(SCCN3CCOCC3)oc12 , give the reported growth inhibition.
(A) 10

(Q) For the compound shown here, Nc1ccc2c(ccc3ccc4ccccc4c32)c1 , give the reported growth inhibition.
(A) -6

(Q) For the compound shown here, CC1C[C@]2(C)C(=O)Nc3ccccc3[C@@H]2Nc2ccccc21 (some centres not stated) , give the reported growth inhibition.
(A) 6

----------
Assay: NCI Yeast Anticancer Drug Screen. Data for the mec2-1 strain (AID 157)
Conditions: S. cerevisiae mec2-1 strain, at 5.0 µM (retest, dose inferred, filed as 0.5)
This is part of a sample that, as a whole, favours compounds with a hit. Of some 79,000 tested, about 15% had one in any assay. Active and inactive are the calls of the source. Cut-off read from the data, not from the text of the source: active = growth inhibition above about 70%; inactive = the rest.
Could you please pick one outcome from this set? true (1) (active), false (0) (inactive)

Here's what some known entries look like.
compound | group.label
C=C1C(=O)OC2C[C@@]3(C)CCC[C@H](C)C3=CC12 (stereo partly drawn) (tested in a mixture with another compound) | false (0)
O=[N+]([O-])c1cc([N+](=O)[O-])c2ccccc2c1NS(=O)(=O)/C=C/c1ccccc1 | false (0)
NC(=O)SCC(=O)NNc1ccccc1 | false (0)

(Q) Query: recorded result category for CN1C(c2ccccc2)CC(=NOCc2ccccc2)CC1c1ccccc1 (stereo not drawn) in this test
(A) true (1)

(Q) Query: recorded result category for Nc1ccc2c3c(cccc13)C(=O)N(CCCBr)C2=O in this test
(A) false (0)

(Q) Query: recorded result category for Nc1cc2c(cc1[N+](=O)[O-])[nH]c1c(-c3ccccc3)nccc12 in this test
(A) false (0)

(Q) Query: recorded result category for Fc1cccc(NC(=S)SCc2ccc(Cl)c(Cl)c2)c1 in this test
(A) false (0)

(Q) Query: recorded result category for O=C(N/C=C/C=C/Sc1ccccc1)OCc1ccccc1 in this test
(A) false (0)

(Q) Query: recorded result category for Oc1cccc2c1-c1ccccc1C2 in this test
(A) false (0)

(Q) Query: recorded result category for O=C(NNc1ccnc2cc(Cl)ccc12)/C(=C/c1ccc2c(c1)OCO2)NC(=O)c1ccccc1 in this test
(A) false (0)

(Q) Query: recorded result category for CC(=O)Nc1c(Cl)c(Cl)c2c(c1Cl)Cc1cc(Cl)ccc1-2 in this test
(A) true (1)

(Q) Query: recorded result category for CCOC(=O)C(C(=O)c1ccccc1)C(=O)c1ccccc1 in this test
(A) false (0)

(Q) Query: recorded result category for OC1CC2CCCC(C1)C2 (stereo not drawn) in this test
(A) false (0)

(Q) Query: recorded result category for O=C(O)COc1ccc(OCC(=O)O)cc1 in this test
(A) false (0)

(Q) Query: recorded result category for S=c1nc[nH]c2[nH]ccc12 in this test
(A) false (0)

(Q) Query: recorded result category for N=C1N(c2ccccc2)C(=S)C(=Nc2ccccc2)N1c1ccccc1 in this test
(A) false (0)

(Q) Query: recorded result category for COc1ccc(-c2c(C#N)c(-c3ccc(C)cc3)n(NS(=O)(=O)c3ccccc3)c(=O)c2C#N)cc1 in this test
(A) false (0)

----------
Experiment: NCI Yeast Anticancer Drug Screen. Data for the wt2 strain (AID 169);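 further: 0% = growth of vehicle-treated yeast cultures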
Settings: S. cerevisiae wt2 strain growth inhibition; at 3.7 µM; hits give high values
About 79,000 compounds went through this panel and 15% of them were active in at least one assay; those are over-represented in the sample as a whole.
property.label: growth inhibition (%)
The reply should be a number in %, with the unit left off.

Record excerpt, results attached:
compound | growth inhibition (%)
COc1ccc(CC(=O)c2ccc(O)cc2O)cc1 | -4
CCC(C)c1ccc(O)c(C(C)CC)c1 (centres undefined) | -13
COc1ccc(Cc2ccc(O)cc2)cc1 | -8

# ---- query compound ----
(Q) For the compound shown here, Fc1ccccc1-c1ncc(-c2ccccc2)o1 , give the reported growth inhibition.
(A) -3

----------
Assay: NCI Yeast Anticancer Drug Screen. Data for the mec2-1 strain (AID 157)
Settings: S. cerevisiae mec2-1 strain, at 50.0 µM, hits give high values
About 79,000 compounds went through this panel and 15% of them were active in at least one assay; those are over-represented in the sample as a whole.
property.label: growth inhibition (%)
The reply should be a number in %, with the unit left off.

Record excerpt, results attached:
molecule | measurement.unit | numeric.result
O=C1C(=Cc2ccc(O)cc2)N=C(c2ccccc2)N1n1c(-c2ccccc2)nc2ccccc2c1=O | % | 38.9
O=C(O)c1ccc(C(c2ccccc2)c2ccccc2)cc1 | % | 97.2
Cc1c(OCc2cccc3ccccc23)ccc2c(=O)cc(SCCN3CCOCC3)oc12 | % | 30.2
CN(C)c1nc(N)c(C#N)c(C#N)c1C#N | % | 88.2
Nc1ncnc2c(C3OC(CO)C(O)C3O)scc12 (stereo not given) | % | 26.4
CCN(CC)c1ccc(C(=C2C=CC(=[N+](CC)CC)C=C2)c2ccc(N(CC)CC)cc2)cc1 | % | 73

# ---- query molecule ----
(Q) For the molecule shown here, O=[N+]([O-])c1ccc(Cl)c(C2CC(c3cccc4ccccc34)=Nc3ccccc3S2)c1 (stereo not given) , give the reported growth inhibition.
(A) 83

----------
Assay: NCI Yeast Anticancer Drug Screen. Data for the bub3 strain (AID 167)
Details: S. cerevisiae bub3 mutant strain, at 5.0 µM (retest, dose inferred, filed as 0.5), hits give high values
About 79,000 compounds went through this panel and 15% of them were active in at least one assay; those are over-represented in the sample as a whole. The source made the active and inactive calls. No stated cut-off is given here; in the data, active means growth inhibition above about 70%; inactive means the rest.
property.label: growth inhibition

compound | growth inhibition
Nc1c(C(=O)O)ccc(C(=O)O)c1C(=O)O | -65% (inactive)
OC1CC2CCCC(C1)C2 (configuration not stated) | 0% (inactive)
O=C1N(c2ccccc2)C(=O)N1c1ccccc1 | 14% (inactive)
O=C1OC(CN2CCOCC2)CN1/N=C/c1ccc([N+](=O)[O-])o1 (configuration not stated) | -4% (inactive)
CN(C)c1ccc(/C=C/c2ccc3ccccc3[n+]2C)cc1 | -9% (inactive)
COC(=O)C1OC(OC(C)=O)C(OC(C)=O)C(OC(C)=O)C1OC(C)=O (configuration not stated) | -4% (inactive)

# ---- query compound ----
(Q) For the compound shown here, COC(=O)C1c2cc3c(cc2C(OC2OC(C)C(OC)C(C)(OC)C2OC)CC1(C)O)C(=O)c1c(O)cc2c(c1C3=O)OC1OC2(C)C(O)C([N+](C)(C)[O-])C1O (configuration not stated) , give the reported growth inhibition.
(A) -10% (inactive)
